Quick list: Content per entry.
Experiment: Stability study, sealed in aluminum-plastic composite film, 40° C. and 75% relative humidity
Type: physicochemical
Conditions: End of 1 month; 40° C., 75% relative humidity; HPLC
Your answer is read as %, so omit the unit and give the number.

Consider the worked cases shown below.
CC(=O)NC1C(O)[C@H](O)C(CO)O[C@H]1OC1C(O)[C@H](O[C@H]2C(CO)OC(O)C(O)C2O)OC(CO)[C@@H]1O (stereo partly shown) [Example 2 Crystalline form A, Lacto-N-triose II]; 98.15
CC(=O)NC1C(O)[C@H](O)C(CO)O[C@H]1OC1C(O)[C@H](O[C@H]2C(CO)OC(O)C(O)C2O)OC(CO)[C@@H]1O (stereo partly shown) [Example 7 Crystalline form A, Lacto-N-triose II]; 98.56
CC(=O)NC1C(O)[C@H](O)C(CO)O[C@H]1OC1C(O)[C@H](O[C@H]2C(CO)OC(O)C(O)C2O)OC(CO)[C@@H]1O (stereo partly shown) [Example 3 Crystalline form A, Lacto-N-triose II]; 97.90
CC(=O)NC1C(O)[C@H](O)C(CO)O[C@H]1OC1C(O)[C@H](O[C@H]2C(CO)OC(O)C(O)C2O)OC(CO)[C@@H]1O (stereo partly shown) [Example 1 Crystalline form A, Lacto-N-triose II]; 98.02
CC(=O)NC1C(O)[C@H](O)C(CO)O[C@H]1OC1C(O)[C@H](O[C@H]2C(CO)OC(O)C(O)C2O)OC(CO)[C@@H]1O (stereo partly shown) [Example 5 Crystalline form A, Lacto-N-triose II]; 92.61

QUERY: Fill in the blank: the reported Content of CC(=O)NC1C(O)[C@H](O)C(CO)O[C@H]1OC1C(O)[C@H](O[C@H]2C(CO)OC(O)C(O)C2O)OC(CO)[C@@H]1O (stereo partly shown) [Example 6 Crystalline form A, Lacto-N-triose II] is ____.
RESULT: 91.94

QUERY: May I ask what Content has been recorded for CC(=O)NC1C(O)[C@H](O)C(CO)O[C@H]1OC1C(O)[C@H](O[C@H]2C(CO)OC(O)C(O)C2O)OC(CO)[C@@H]1O (stereo partly shown) [Example 4 Crystalline form A, Lacto-N-triose II] ?
RESULT: 92.32
